Measured Effect of individual entries
biological target: Estrogen receptor (Mus musculus) (UniProt O08537+P19785); test: Uterotrophic effect in mice at 1000 ug dose; type: functional, tissue-based; design: unit not given here; conditions: Uterus
Sequence (O08537 whole entry, looked up): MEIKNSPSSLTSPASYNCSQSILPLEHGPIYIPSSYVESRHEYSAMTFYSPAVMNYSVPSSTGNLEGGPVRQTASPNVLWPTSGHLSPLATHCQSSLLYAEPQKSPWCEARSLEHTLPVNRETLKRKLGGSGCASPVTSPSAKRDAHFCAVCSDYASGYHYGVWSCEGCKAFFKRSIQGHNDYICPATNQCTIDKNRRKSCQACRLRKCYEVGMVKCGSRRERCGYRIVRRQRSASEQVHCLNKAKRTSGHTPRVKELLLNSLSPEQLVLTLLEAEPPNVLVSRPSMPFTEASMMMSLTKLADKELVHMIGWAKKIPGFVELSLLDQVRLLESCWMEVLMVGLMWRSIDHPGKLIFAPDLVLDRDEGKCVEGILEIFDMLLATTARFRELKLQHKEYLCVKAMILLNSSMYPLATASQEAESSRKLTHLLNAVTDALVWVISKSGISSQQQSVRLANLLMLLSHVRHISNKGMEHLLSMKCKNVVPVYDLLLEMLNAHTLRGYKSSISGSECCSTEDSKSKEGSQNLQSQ
Sequence (P19785 whole entry, looked up): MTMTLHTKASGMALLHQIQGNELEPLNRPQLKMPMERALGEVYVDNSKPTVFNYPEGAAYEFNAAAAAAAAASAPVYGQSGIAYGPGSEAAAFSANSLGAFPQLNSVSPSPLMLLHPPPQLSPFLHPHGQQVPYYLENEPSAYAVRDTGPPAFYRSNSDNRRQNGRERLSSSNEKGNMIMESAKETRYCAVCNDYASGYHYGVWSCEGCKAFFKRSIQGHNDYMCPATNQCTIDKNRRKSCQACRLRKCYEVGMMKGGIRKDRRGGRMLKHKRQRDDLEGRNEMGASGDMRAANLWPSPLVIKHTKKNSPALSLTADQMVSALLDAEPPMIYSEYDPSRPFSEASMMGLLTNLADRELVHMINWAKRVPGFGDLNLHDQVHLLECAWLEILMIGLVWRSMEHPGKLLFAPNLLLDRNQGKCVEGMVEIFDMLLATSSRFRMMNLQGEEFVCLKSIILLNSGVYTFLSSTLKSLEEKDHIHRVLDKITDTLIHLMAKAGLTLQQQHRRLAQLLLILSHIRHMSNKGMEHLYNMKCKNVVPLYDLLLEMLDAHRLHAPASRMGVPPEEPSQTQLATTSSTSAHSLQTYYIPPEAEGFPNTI
measurement_kind: Effect

INSERT INTO assay_data (molecule, obs_value) VALUES
  ('C/C(=C(/C)c1ccc(O)cc1)c1ccc(O)cc1 [DIMETHYLSTILBESTROL]', 41.8),
  ('C/C(=C(/C)c1cccc(O)c1)c1cccc(O)c1', 12.8),
  ('Oc1cccc([C@H]([C@H](c2cccc(O)c2)C(F)(F)F)C(F)(F)F)c1', 36),
  ('C[C@H](c1cccc(O)c1)[C@@H](C)c1cccc(O)c1', 13.1);
